# Species on record: Rattus norvegicus
# PROTOCOL: Open TG-GATES - Regimen: Daily Repeat
# Type: toxicity, organism-based, Sprague-Dawley
# Parameters: regimen Daily Repeat, gender Male, age 6 weeks
# EXPERIMENTAL_PARAMETERS: in vivo, po, 0 mg/kg, […], tissue Plasma, route gavage, dose level Control, time 28 day

COMPOUND: CC1=C(/C=C/C(C)=C/C=C/C(C)=C/CO)C(C)(C)CCC1
CRE [mg/dL]: 0.2
--
COMPOUND: CN(C)CCN(Cc1cccs1)c1ccccn1
CRE [mg/dL]: 0.2
--
COMPOUND: CC(C)OC(=O)C(C)(C)Oc1ccc(C(=O)c2ccc(Cl)cc2)cc1 [FENOFIBRATE]
CRE [mg/dL]: 0.2
--
COMPOUND: COC1=CC(=O)C[C@@H](C)[C@]12Oc1c(Cl)c(OC)cc(OC)c1C2=O
CRE [mg/dL]: 0.5
--
COMPOUND: CN1C(=O)CN=C(c2ccccc2)c2cc(Cl)ccc21
CRE [mg/dL]: 0.7
